Hey, just so you know, these numbers are from paper PMC3684073.

Biological target: human serotonin transporter (hSERT) (Homo sapiens, UniProt P31645)
Sequence (P31645 whole entry): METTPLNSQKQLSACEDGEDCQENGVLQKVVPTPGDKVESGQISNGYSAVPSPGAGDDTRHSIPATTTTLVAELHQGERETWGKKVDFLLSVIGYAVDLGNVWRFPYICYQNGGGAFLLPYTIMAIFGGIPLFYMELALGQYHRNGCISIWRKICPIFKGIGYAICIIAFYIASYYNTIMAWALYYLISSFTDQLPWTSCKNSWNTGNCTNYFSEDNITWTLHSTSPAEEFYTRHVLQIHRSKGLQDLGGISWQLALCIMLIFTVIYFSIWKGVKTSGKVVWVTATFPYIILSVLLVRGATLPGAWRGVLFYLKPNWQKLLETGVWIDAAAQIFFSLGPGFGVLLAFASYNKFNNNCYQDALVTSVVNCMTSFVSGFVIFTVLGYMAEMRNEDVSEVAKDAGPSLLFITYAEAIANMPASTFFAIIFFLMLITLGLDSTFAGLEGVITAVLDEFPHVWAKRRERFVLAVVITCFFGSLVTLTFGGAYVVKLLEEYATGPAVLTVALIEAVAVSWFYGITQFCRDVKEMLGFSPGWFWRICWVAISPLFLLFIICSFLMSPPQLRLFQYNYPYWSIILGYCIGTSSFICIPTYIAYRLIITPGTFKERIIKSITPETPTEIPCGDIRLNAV
endpointName: pIC50
Recall that pIC50 is obtained by taking minus log10 of the concentration measured in molar.

**Query** Requested read-out: pIC50. Entry: CNCCc1c[nH]c2ccc(O)cc12
**Result** 6.31

---

Target: 5-HT1B (Rattus norvegicus)
Sequence (P28564 whole entry): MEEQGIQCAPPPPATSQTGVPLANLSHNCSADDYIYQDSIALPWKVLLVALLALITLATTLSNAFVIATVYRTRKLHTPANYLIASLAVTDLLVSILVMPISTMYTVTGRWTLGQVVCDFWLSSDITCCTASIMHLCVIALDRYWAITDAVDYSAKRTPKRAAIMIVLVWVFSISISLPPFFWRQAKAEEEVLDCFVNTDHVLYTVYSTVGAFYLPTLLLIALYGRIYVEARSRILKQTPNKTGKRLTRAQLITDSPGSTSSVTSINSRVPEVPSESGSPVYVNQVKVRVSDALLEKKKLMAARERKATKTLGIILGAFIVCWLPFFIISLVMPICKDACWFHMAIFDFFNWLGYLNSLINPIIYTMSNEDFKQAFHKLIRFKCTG
endpointName: IC50 (nM)
Quick note: give the figure in nM, leave out the unit.

**Query** What value of measured IC50 is listed for CNCCc1c[nH]c2ccc(O)cc12 [Nω-methylserotonin, 3-(2-Methylaminoethyl)indol-5-ol] ?
**Result** 15
